# assayed_system: T1, recombinant human IGSF8 extracellular domain tagged by a human Fc region (IGSF8-hFc) (human, UniProt Q969P0 28-579, biotin label in Examples 17, 18 and 28 (site not given))
# T1 construct: also called IGSF8-Fc fusion protein; IGSF8-hFc-biotin; not shown: human Fc region
# T1 sequence: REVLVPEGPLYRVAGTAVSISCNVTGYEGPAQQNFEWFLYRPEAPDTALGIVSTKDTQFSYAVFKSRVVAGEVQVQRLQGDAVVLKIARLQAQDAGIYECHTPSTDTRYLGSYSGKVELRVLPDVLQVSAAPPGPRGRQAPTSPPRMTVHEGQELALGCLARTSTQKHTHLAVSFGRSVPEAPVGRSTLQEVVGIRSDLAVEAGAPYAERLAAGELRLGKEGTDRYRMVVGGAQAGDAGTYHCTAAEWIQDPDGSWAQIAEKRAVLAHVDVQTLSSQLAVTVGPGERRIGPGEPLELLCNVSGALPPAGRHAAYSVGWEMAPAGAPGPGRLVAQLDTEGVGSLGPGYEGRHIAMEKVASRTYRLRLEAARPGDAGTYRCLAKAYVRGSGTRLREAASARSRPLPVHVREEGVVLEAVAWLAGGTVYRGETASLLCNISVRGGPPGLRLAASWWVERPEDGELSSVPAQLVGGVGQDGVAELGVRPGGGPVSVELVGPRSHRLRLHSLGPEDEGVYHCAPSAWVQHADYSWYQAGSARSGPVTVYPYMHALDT
# run_description: SPR, Ab captured
Lab note: anything with Kd below 50 nM is marked Criterion met; values at 50 nM or higher are marked Criterion not met.

See these solved cases before continuing.
binder | assigned_label
L2-02 (antibody, V domains shown) VH: EVQLVESGGGLEQPGGSLRLSCAGSGFTFRDYAMTWVRQAPGKGLEWVSSISGSGGNTYYADSVKGRFTISRDNSKNTLYLQMNSLRAEDTAIYYCARGEYSSGWPSWFDPWGQGTLVTVSS VL: EIVLTQSPSSLSASVGDRVTISCRASRTVGTFLNWYQQRPGKPPQALILHTSILEGGVSSRFSGAGSGTEFSLTISSLQPEDIGTYYCQQSHDVPRTFGQGTKVDLR | Criterion met
L1-14 (antibody, V domains shown) VH: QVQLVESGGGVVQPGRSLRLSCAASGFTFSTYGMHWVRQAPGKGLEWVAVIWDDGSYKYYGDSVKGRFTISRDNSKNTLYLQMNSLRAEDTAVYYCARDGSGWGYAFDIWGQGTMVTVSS VL: DIQLTQSPSSLSASVGDRVTITCQASQDISEYLNWYQHKPGKAPNPLVFSQPNLETGVPPRFSATGSGTDFSLTITSLQPEDFATYYCQQYDSFPYTFGQGTRLDIK | Criterion met
L1VH-W52L (antibody, V domains shown, mutant of the L1 antibody) VH: QVQLVESGGGVVQPGRSLRLSCAASGFTFSTYGMHWVRQAPGKGLEWVAVILDDGSYKYYGDSVKGRFTISRDNSKNTLYLQMNSLRAEDTAVYYCARDGSGWGYAFDIWGQGTMVTVSS VL: DIQLTQSPSSLSASVGDRVTITCQASQDISEYLNWYQHKPGKAPNPLVFDAANLETGVPPRFSATGSGTDFSLTITSLQPEDFATYYCQQYDSFPYTFGQGTRLDIK | Criterion not met

Confirm or reject: Kd of L1-28 (antibody, V domains shown) VH: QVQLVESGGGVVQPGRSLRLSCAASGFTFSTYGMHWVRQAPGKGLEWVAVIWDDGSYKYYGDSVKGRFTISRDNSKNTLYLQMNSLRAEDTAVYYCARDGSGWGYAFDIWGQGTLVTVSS VL: DIQLTQSPSSLSASVGDRVTITCQASQDIEWWLNWYQHKPGKAPKPLIYGSPNLETGVPSRFSGSGSGTDFTFTISSLQPEDIATYYCQQYDSFPYTFGQGTKVEIK lies strictly below 50 nM
Criterion met
